- assay target: Z-AAT (Homo sapiens, UniProt P01009, E366K)
- Construct: Purified Z-AAT protein from human plasma; Vertex Cambridge Sample 4942)
- Sequence (P01009 25-418 E366K): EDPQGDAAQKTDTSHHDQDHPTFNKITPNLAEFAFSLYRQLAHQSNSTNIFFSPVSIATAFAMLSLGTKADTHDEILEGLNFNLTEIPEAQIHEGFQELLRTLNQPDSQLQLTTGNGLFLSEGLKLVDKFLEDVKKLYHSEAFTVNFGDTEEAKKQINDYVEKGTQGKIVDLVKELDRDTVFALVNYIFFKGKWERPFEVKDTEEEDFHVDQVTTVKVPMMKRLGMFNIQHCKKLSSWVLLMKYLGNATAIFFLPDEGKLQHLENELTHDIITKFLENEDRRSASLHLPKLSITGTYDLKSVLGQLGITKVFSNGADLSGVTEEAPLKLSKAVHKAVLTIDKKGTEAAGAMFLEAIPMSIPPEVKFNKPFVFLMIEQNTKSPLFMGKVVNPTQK
- method summary: Biochemical Assay (Z-AAT Elastase Activity Assay)
- conditions used: purified Z-AAT protein from human plasma and purified human neutrophil elastase
pIC50: −log10 of the molar value.
value kind: pIC50

Input line: Using the record for CC(C)Oc1cc(C(=O)O)cc(-c2c(C(C)C)n(-c3ccc(F)cc3)c3cc4cn[nH]c4cc23)c1 , report its pIC50.
Output line: < 6.00

Input line: Record request: pIC50 value, item CS(=O)(=O)c1ccc(-c2c(C3CCOCC3)n(-c3ccc(F)cc3)c3cc4cn[nH]c4cc23)nc1
Output line: < 4.52

Input line: Name the recorded pIC50 for CP(=O)(O)c1ccc(-c2c(C3CCOCC3)n(-c3ccc(F)cc3)c3cc4cn[nH]c4cc23)cc1 .
Output line: < 4.52

Input line: What does the data say about its pIC50? Entry: COCC(C)(C)c1c(-c2ccc(C(=O)O)cc2F)c2cc3[nH]ncc3cc2n1-c1ccc(F)cc1
Output line: < 6.00

Input line: What does the record list as pIC50 for CC(C)c1c(-c2nc(C(=O)O)ccc2F)c2cc3[nH]ncc3cc2n1-c1ccc(F)cc1 ?
Output line: < 4.52

Input line: Quick one: pIC50 for CC(C)c1c(-c2ccc(C(F)(F)F)c(C(=O)O)c2)c2cc3[nH]ncc3cc2n1-c1ccc(F)cc1 ?
Output line: < 6.00

Input line: Fill in the blank: the reported pIC50 of COc1cc(-n2c(C(C)(C)CC#N)c(-c3ccc(C(=O)O)cc3)c3cc4[nH]ncc4cc32)ccn1 is ____.
Output line: < 6.00

---

- assay target: NL20 human bronchial epithelial cells expressing human Z-AAT (Homo sapiens, UniProt P01009, E366K)
- Sequence (P01009 25-418 E366K): as above
- method summary: AAT Function Assay (MSD Assay NL20-SI Cell Line)
- conditions used: functionally active AAT in supernatant of NL20 cells expressing human Z-AAT, MSD readout; read-out: NL20 Func. (EC50)
value kind: EC50

Input line: Which value of EC50 has been reported for COc1cc(C(=O)O)ccc1-c1c(C2CCOCC2)n(-c2ccc(F)cc2)c2cc3cn[nH]c3cc12 [Compound 31] in the records?
Output line: 400 to 1000 nM

Input line: If you can, please state the reported EC50 value of CCC1(c2c(-c3cnn(C(C)(C)C(=O)O)c3)c3cc4[nH]ncc4cc3n2-c2ccc(F)cc2)COC1 [Compound 262] .
Output line: > 1000 nM

Input line: Please look up its EC50: CC(C)c1c(-c2cc(C(=O)O)n(C)n2)c2cc3[nH]ncc3cc2n1-c1ccc(F)cc1 [Compound 63]
Output line: > 1000 nM

Input line: Consider the compound COCC(C)(C)c1c(-c2ccc(C(=O)N3CCC(O)(CO)C3)cc2)c2cc3[nH]ncc3cc2n1-c1ccc(F)cc1 (stereo not drawn) [Compound 240] and give its measured EC50.
Output line: > 1000 nM

Input line: Looking for the measured EC50 of CC(C)c1c(-c2ccc(C(=O)O)cc2)c2cc3[nH]ncc3cc2n1-c1ccc(F)cc1 [Compound 54] , can you help?
Output line: < 400 nM

Input line: Return reported EC50; argument: O=C(O)c1ccc(-c2c(C3(O)CCOCC3)n(-c3ccc(F)cc3)c3cc4ncsc4cc23)cc1 [Compound 169]
Output line: > 1000 nM

Input line: For COCCOc1cc(C(=O)O)ccc1-c1c(C(C)C)n(-c2ccc(F)cc2)c2cc3cn[nH]c3cc12 [Compound 72] , what is its reported EC50?
Output line: < 400 nM

Input line: Can you look up the measured EC50 of O=C(O)c1ccc(-c2c(C3CCOCC3)n(-c3ccc(F)cc3)c3nc4cn[nH]c4cc23)cc1 [Compound 326] for me?
Output line: > 1000 nM

Input line: Which EC50 is listed for CN1CCN(c2ccc(-c3c(C4CCOCC4)n(-c4ccc(F)cc4)c4cc5cn[nH]c5cc34)cn2)CC1 [Compound 156] ?
Output line: > 1000 nM

Input line: Data request, read-out EC50, for O=C(O)c1ccc(-c2c(C3CCOCC3)n(-c3ccc(F)cc3)c3cc4cn[nH]c4cc23)cc1 [Compound 33]
Output line: < 400 nM

Input line: Fill in: EC50 of NC(=O)Cn1cc(-c2c(C3CCOCC3)n(-c3ccc(F)cc3)c3cc4cn[nH]c4cc23)cn1 [Compound 290] is ___
Output line: > 1000 nM

Input line: Would you mind telling me what EC50 value was observed for CC(C)c1c(-c2ccc(C(=O)O)cc2F)c2cc3[nH]ncc3cc2n1-c1ccc(F)cc1 [Compound 53] ?
Output line: < 400 nM

Input line: State the recorded EC50 for this entry: CCC1(c2c(-c3ccc(C(=O)O)cc3)c3cc4[nH]ncc4cc3n2-c2ccc(F)cc2)COC1 [Compound 111]
Output line: < 400 nM

Input line: I would be grateful if you could share the reported EC50 for CC(C)OCc1c(-c2ccc(C(=O)O)cc2)c2cc3[nH]ncc3cc2n1-c1ccc(F)cc1 [Compound 297] .
Output line: > 1000 nM

Input line: What value of measured EC50 is listed for COCC(C)(C)c1c(-c2ccc(C(=O)N[C@H]3C[C@H](S(C)(=O)=O)C3)cc2)c2cc3[nH]ncc3cc2n1-c1ccc(F)cc1 [Compound 226] ?
Output line: > 1000 nM

---

- assay target: NL20 human bronchial epithelial cells expressing human Z-AAT (Homo sapiens, UniProt P01009, E366K)
- Construct: expressed in transfected cells; host or cells: NL20 human bronchial epithelial cells (NL20-SI cell line), doxycycline added with compounds
- method summary: AAT Function Assay (MSD Assay NL20-SI Cell Line)
- Format: cell-based
- conditions used: functionally active AAT in supernatant of NL20 cells expressing human Z-AAT, MSD readout; read-out: NL20 Func. (EC50)
Assign EC50 to each entry below.

Input line: Look up EC50 for this compound: COCC(C)(C)c1c(-c2cnc(OC)nc2)c2cc3[nH]ncc3cc2n1-c1ccc(F)cc1 [Compound 218]
Output line: 0.4 to 1 µM

Input line: Consider the compound COCC(C)(C)c1c(-c2ccc(C(=O)NC3CCCNC3=O)cc2)c2cc3[nH]ncc3cc2n1-c1ccc(F)cc1 (stereo not shown) [Compound 237] and give its measured EC50.
Output line: > 1 µM

Input line: For the compound CC(C)c1c(-c2cc(C(=O)O)c3cc[nH]c3c2)c2cc3[nH]ncc3cc2n1-c1ccc(F)cc1 [Compound 65] , what EC50 is on record?
Output line: 0.4 to 1 µM

Input line: Reported EC50, compound COCC(C)(C)c1c(-c2ccc(C(=O)NCCN3CCNC3=O)cc2)c2cc3[nH]ncc3cc2n1-c1ccc(F)cc1 [Compound 215] : ____
Output line: > 1 µM

Input line: Suppose we examine the compound CC(C)(CC#N)c1c(-c2ccc(C(=O)O)cc2)c2cc3[nH]ncc3cc2n1Cc1cccnc1Cl [Compound 319] ; what EC50 value has been reported?
Output line: > 1 µM

Input line: Returns the measured EC50 for the input compound. Input: COc1cc(-c2c(C3CCOCC3)n(-c3ccc(F)cc3)c3cc4cn[nH]c4cc23)cc(OC)c1OC [Compound 152]
Output line: > 1 µM

Input line: Dear colleague, I am looking for the recorded EC50 of the following compound: CC(C)(CC#N)c1c(-c2ccc(C(=O)O)cc2)c2cc3[nH]ncc3cc2n1CC1CCOCC1 [Compound 307]
Output line: > 1 µM

---

- assay target: NL20 human bronchial epithelial cells expressing human Z-AAT (Homo sapiens, UniProt P01009, E366K)
- method summary: AAT Function Assay (MSD Assay NL20-SI Cell Line)
- conditions used: functionally active AAT in supernatant of NL20 cells expressing human Z-AAT, MSD readout; read-out: NL20 Func. (EC50)
- Excerpt: A. AAT Function Assay (MSD Assay NL20-SI Cell Line) Alpha-1 antitrypsin (AAT) is a SERPIN (serine protease inhibitor) that inactivates enzymes by binding to them covalently. This assay measured the amount of functionally active AAT in a sample in the presence of the disclosed compounds 1-342 by determining the ability of AAT to form an irreversible complex with human neutrophil Elastase (hNE). […]
pEC50: −log10 of the molar value.
For each record, write down the corresponding pEC50.

Input line: So what's the measured pEC50 for this one? CC1(c2c(-c3ccc(C(=O)O)cc3)c3cc4[nH]ncc4cc3n2-c2ccc(F)cc2)COC1
Output line: < 6.00

Input line: Tell me the measured pEC50 of COCc1c(-c2ccc(C(=O)O)cc2)c2cc3[nH]ncc3cc2n1-c1ccc(F)c(C)c1 , please.
Output line: < 6.00

Input line: What pEC50 value was documented for this molecule, Cc1cc(-n2c(C(C)(C)CC#N)c(-c3ccc(C(=O)O)cc3)c3cc4[nH]ncc4cc32)ccc1F ?
Output line: > 6.40

Input line: Returns the measured pEC50 for the input molecule. Input: COCC(C)(C)c1c(-c2ccc(C(=O)NCC3(O)COC3)cc2)c2cc3[nH]ncc3cc2n1-c1ccc(F)cc1
Output line: < 6.00

Input line: I have this molecule here, CC(C)c1c(-c2cc(Cl)cc(C(=O)O)c2)c2cc3[nH]ncc3cc2n1-c1ccc(F)cc1 , and I need its recorded pEC50.
Output line: > 6.40

Input line: Which pEC50 is reported for this molecule? CC(C)(CC#N)c1c(-c2ccc(C(=O)O)s2)c2cc3[nH]ncc3cc2n1-c1ccc(F)cc1
Output line: < 6.00

Input line: Find the recorded pEC50 belonging to O=C1CCCN1CCn1cc(-c2c(C3CCOCC3)n(-c3ccc(F)cc3)c3cc4cn[nH]c4cc23)cn1 and report it.
Output line: < 6.00

Input line: Return reported pEC50; argument: Cc1cc(-n2c(C(C)(C)CC#N)c(-c3ccc(C(=O)O)cc3)c3cc4[nH]ncc4cc32)ccn1
Output line: < 6.00

Input line: So what's the measured pEC50 for this one? COCC(C)(C)c1c(-c2ccc(C(=O)N3C[C@H](O)[C@@H](O)C3)cc2)c2cc3[nH]ncc3cc2n1-c1ccc(F)cc1
Output line: < 6.00

Input line: Given the entry O=c1cc(-c2c(C3CCOCC3)n(-c3ccc(F)cc3)c3cc4cn[nH]c4cc23)cc[nH]1 , report its measured pEC50.
Output line: < 6.00

Input line: State the recorded pEC50 for this entry: OCCn1cc(-c2c(C3CCOCC3)n(-c3ccc(F)cc3)c3cc4cn[nH]c4cc23)cn1
Output line: < 6.00

Input line: Param item = Cc1cc(C(=O)O)ccc1-c1c(C)n(-c2cccc(F)c2)c2cc3cn[nH]c3cc12 ; retrieve measured pEC50.
Output line: > 6.40

Input line: GET /values?readout=pEC50&item= CP(C)(=O)c1ccc(-c2c(C3CCOCC3)n(-c3ccc(F)cc3)c3cc4cn[nH]c4cc23)cn1
Output line: < 6.00

Input line: Consider the molecule shown here: COP(=O)(OC)c1ccc(-c2c(C3CCOCC3)n(-c3ccc(F)cc3)c3cc4cn[nH]c4cc23)cc1 What is its recorded pEC50?
Output line: > 6.40

Input line: Any idea what pEC50 was measured for Cc1cc(P(C)(C)=O)ncc1-c1c(C(C)(C)CC#N)n(-c2ccc(F)cc2)c2cc3cn[nH]c3cc12 ?
Output line: 6.00 to 6.40

Input line: Form field: reported pEC50 of O=C(O)c1ccc(-c2c(C3CCOCC3)n(-c3ccc(F)cc3)c3cc4cn(C5O[C@H](C(=O)O)[C@@H](O)[C@H](O)[C@H]5O)nc4cc23)cc1 (single isomer, unassigned)
Output line: < 6.00

Input line: State the recorded pEC50 for this entry: CC(C)c1c(-c2ccc(C(F)(F)F)c(C(=O)O)c2)c2cc3[nH]ncc3cc2n1-c1ccc(F)cc1
Output line: 6.00 to 6.40

Input line: Which value of pEC50 has been reported for CC1(c2c(-c3ccc(C(=O)O)cc3)c3cc4[nH]ncc4cc3n2-c2ccc(F)cc2)CS(=O)(=O)C1 in the records?
Output line: < 6.00

Input line: Entry under review: COCC1(c2c(-c3ccc(C(=O)O)cc3)c3cc4[nH]ncc4cc3n2-c2ccc(F)cc2)COC1 . Reported pEC50?
Output line: < 6.00

Input line: Quick one: pEC50 of CCC1(c2c(-c3ccc(C(=O)O)cc3F)c3cc4[nH]ncc4cc3n2-c2ccc(F)cc2)COC1 ?
Output line: > 6.40

Input line: Bench note: what pEC50 did CCC(O)(COC)c1c(-c2ccc(C(=O)O)cc2)c2cc3[nH]ncc3cc2n1-c1ccc(F)cc1 (stereo not shown) show?
Output line: > 6.40

Input line: // returns reported pEC50 for input COCC(C)(C)c1c(-c2ccc(C(=O)N3CCC(S(C)(=O)=O)C3)cc2)c2cc3[nH]ncc3cc2n1-c1ccc(F)cc1 (stereo not shown)
Output line: < 6.00

Input line: Fill in: pEC50 of COCC(C)(C)c1c(-c2ccc(C(=O)NCC(O)CO)cc2)c2cc3[nH]ncc3cc2n1-c1ccc(F)cc1 (stereo not shown) is ___
Output line: < 6.00

Input line: Tell me the measured pEC50 of CC(C)c1c(-c2cc(C(=O)O)cc(C(F)(F)F)c2)c2cc3[nH]ncc3cc2n1-c1ccc(F)cc1 , please.
Output line: 6.00 to 6.40

Input line: Can you share its pEC50? I mean this molecule: CC(C)(COC(F)F)c1c(-c2ccc(C(=O)O)cc2)c2cc3[nH]ncc3cc2n1-c1ccc(F)cc1
Output line: > 6.40

Input line: Could you share which pEC50 value was measured for CC(C)(CC#N)c1c(-c2ccc(C(=O)O)cc2)c2cc3[nH]ncc3cc2n1Cc1ccncc1 ?
Output line: < 6.00

Input line: GET /values?readout=pEC50&item= CC(=O)N1CC(n2cc(-c3c(C4CCOCC4)n(-c4ccc(F)cc4)c4cc5cn[nH]c5cc34)cn2)C1
Output line: < 6.00

Input line: Could you tell me which pEC50 is on file for COCC(C)(C)c1c(-c2ccc(C(=O)N[C@H]3CNC3=O)cc2)c2cc3[nH]ncc3cc2n1-c1ccc(F)cc1 ?
Output line: 6.00 to 6.40

All figures here come from patent US12331057B2.
